# credit: patent US20170002055A1

tested_on: HLA-A*02:01 (Homo sapiens, UniProt P04439, D140Y/D185E/D98H/E176V/E277Q/G131W/G231S/I119V/I121R/I166T/I218V/L300P/L318F/N151K/N90K/P208A/P217A/Q86G/Q94H/R138H/R169H/T345S)
test_method_notes: MHC binding assay (UV-ligand exchange, β2m ELISA, peptide exchange yield)
reported_conditions: MHC class I binding score; binding to HLA-A*02:01 ranged by peptide exchange yield (UV-ligand exchange, β2m ELISA)

# substance, Peptide exchange
data = [
    ("41 (SLMPHIPGL; listed as Homo sapiens) [compound 41]", "“+++” (≧50 = +++)"),
    ("427 (ALLPLSPYL; listed as Homo sapiens) [compound 427]", "“+++” (≧50 = +++)"),
    ("34 (ILVEADSLWVV; listed as Homo sapiens) [compound 34]", "“+++” (≧50 = +++)"),
    ("90 (TLLQIIETV; listed as Homo sapiens) [compound 90]", "“+++” (≧50 = +++)"),
    ("245 (SMIDDLLGV; listed as Homo sapiens) [compound 245]", "“+++” (≧50 = +++)"),
    ("101 (ILVGGGALATV; listed as Homo sapiens) [compound 101]", "“+++” (≧50 = +++)"),
    ("126 (VLAYFLPEA; listed as Homo sapiens) [compound 126]", "“++++” (≧75% = ++++)"),
    ("25 (FLPDEPYIKV; listed as Homo sapiens) [compound 25]", "“+++” (≧50 = +++)"),
    ("8 (FTLGNVVGMYL; listed as Homo sapiens) [compound 8]", "“++++” (≧75% = ++++)"),
    ("457 (SLLPGNLVEKV; listed as Homo sapiens) [compound 457]", "“+++” (≧50 = +++)"),
    ("51 (LLPDLEFYV; listed as Homo sapiens) [compound 51]", "“++++” (≧75% = ++++)"),
    ("306 (ALVNVQIPL; listed as Homo sapiens) [compound 306]", "“+++” (≧50 = +++)"),
    ("240 (ILLEQAFYL; listed as Homo sapiens) [compound 240]", "“+++” (≧50 = +++)"),
    ("238 (YLISFQTHI; listed as Homo sapiens) [compound 238]", "“+++” (≧50 = +++)"),
    ("376 (AMFESSQNVLL; listed as Homo sapiens) [compound 376]", "“++” (≧20% = ++)"),
    ("159 (GLVGNPLPSV; listed as Homo sapiens) [compound 159]", "“++++” (≧75% = ++++)"),
    ("253 (GLDAATATV; listed as Homo sapiens) [compound 253]", "“++” (≧20% = ++)"),
    ("539 (ALFDAQAQV; listed as Homo sapiens) [compound 539]", "“+++” (≧50 = +++)"),
    ("219 (KLSDIGITV; listed as Homo sapiens) [compound 219]", "“+++” (≧50 = +++)"),
    ("89 (YILPTETIYV; listed as Homo sapiens) [compound 89]", "“++++” (≧75% = ++++)"),
]
